All values here come from PubChem BioAssay.

System: Wnt5a (protein binding on small-molecule microarray)
EXPERIMENT SUMMARY: Wnt5a binders on small-molecule microarray, primary screen, biophysical, 635/667 nm fluorescence (AID 1142);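 note: fluorescence read at 667 nm with signal to noise per printed feature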
MEASUREMENT PARAMETERS: 635 nm fluorescence, higher = more signal
ASSAY ENDPOINT: composite z-score
Kindly provide the number alone.

Item: COCCOC(=O)N1C(=O)[C@@]2(c3cc(C#Cc4ccc(OC)cc4)ccc31)[C@H](c1ccc(O)cc1)N1[C@H](c3ccccc3)[C@H](c3ccccc3)OC(=O)[C@H]1[C@@H]2C(=O)NC[C@H](O)c1ccccc1 | composite z-score: 0.763

Item: Cc1ccc(C(C)CC(O)C2C=CC3C(=O)N(c4ccccc4)C(=O)C3N2Nc2ccc([N+](=O)[O-])cc2)o1 (centres undefined) | composite z-score: 0.354

Item: O=C1OCC=C[C@H]2OC34C=CCN(CCN5CCOCC5)C(=O)[C@H]3N(CCCO)C(=O)[C@@H]4[C@@H]12 (some centres undefined) | composite z-score: -0.418

Item: Cc1ccc(S[C@]2(C(=O)NCC(C)C)CC(=O)N(Cc3cc(C(F)(F)F)cc(C(F)(F)F)c3)[C@@H]2c2ccc(CO)cc2I)cc1 | composite z-score: -0.0088
